pIC50: recorded values
# study.target: IDO1 in Hela cells stimulated with IFNγ (Homo sapiens (Human), UniProt P14902)
# experiment.description: IDO1 Cellular Assay in Hela Cells Stimulated with IFNγ
# condition.parameters: IFNγ 100 ng/mL, about 48 hours, fluorescence readout, read-out: IDO1 HELA Cell Assay, IC50
# Method: IDO1 Cellular Assay in Hela Cells Stimulated with IFNγ Hela cells were cultured in complete Hela culture medium (90% EMEM, 10% heat-inactivated fetal bovine serum) and expanded to about 1×10^9 cells. […] Frozen Hela cells were thawed and transferred into Hela assay medium (99% complete Hela culture medium, 1% Pen/Strep) with 20 mL medium/vial of cells. […] The cells were then counted and adjusted to a density of 2×10^5 cells/ml in Hela assay medium. […]
pIC50: −log10 of the molar value.
measured.endpoint: pIC50

INSERT INTO assay_data (compound, recorded_number) VALUES
  ('O=C(COc1nonc1/C(=N/O)NC1Cc2ccc(F)cc21)NCC(O)CO (centres unmarked)', 6.04),
  ('C[C@@H](CNS(N)(=O)=O)Oc1nonc1/C(=N/O)N[C@H]1Cc2ccc(F)cc21', 6.07),
  ('NC(=O)NCCOc1nonc1/C(=N/O)NC1Cc2ccc(F)cc21 (centres unmarked)', 6.71),
  ('CCC(=O)NCCOc1nonc1/C(=N/O)N[C@H]1Cc2ccc(F)cc21', 7.28),
  ('O=C(CO)N1CCC[C@@H]1COc1nonc1/C(=N/O)N[C@H]1Cc2ccc(F)cc21', 5.87),
  ('CC(=O)N[C@H]1C[C@@H](Oc2nonc2/C(=N/O)N[C@H]2Cc3ccc(F)cc32)C1', 7.38),
  ('NS(=O)(=O)CCOc1nonc1/C(=N/O)N[C@H]1Cc2ccc(F)cc21', 6.06),
  ('NC(=O)COc1nonc1/C(=N/O)N[C@H]1Cc2ccc(F)cc21', 6.66),
  ('O/N=C(\N[C@H]1Cc2ccc(F)cc21)c1nonc1OC1CNC1', 5.75),
  ('CC(C)(O)C(=O)N[C@H]1C[C@@H](Oc2nonc2/C(=N/O)N[C@H]2Cc3ccc(F)cc32)C1', 6.54),
  ('O=C(CO)N1CC(COc2nonc2/C(=N/O)N[C@H]2Cc3ccc(F)cc32)C1', 6.53),
  ('CC(=O)NC(CO)COc1nonc1/C(=N/O)N[C@H]1Cc2ccc(F)cc21 (some centres unmarked)', 6.35),
  ('NS(=O)(=O)N1CCC(Oc2nonc2/C(=N/O)N[C@H]2Cc3ccc(F)cc32)CC1', 5.14),
  ('NS(=O)(=O)NCCCOc1nonc1/C(=N/O)N[C@H]1Cc2ccc(F)cc21', 7.18),
  ('O=C(COc1nonc1/C(=N/O)N[C@H]1Cc2ccc(F)cc21)NC[C@@H](O)CO', 6.29),
  ('CC(C)(O)CNC(=O)COc1nonc1/C(=N/O)NC1Cc2ccc(F)cc21 (centres unmarked)', 6.11),
  ('O=C(NCCOc1nonc1/C(=N/O)N[C@H]1Cc2ccc(F)cc21)c1nc[nH]n1', 6.51);

###

# study.target: HIS-tagged IDO1 protein (Homo sapiens (Human), UniProt P14902)
# Sequence (P14902 whole entry): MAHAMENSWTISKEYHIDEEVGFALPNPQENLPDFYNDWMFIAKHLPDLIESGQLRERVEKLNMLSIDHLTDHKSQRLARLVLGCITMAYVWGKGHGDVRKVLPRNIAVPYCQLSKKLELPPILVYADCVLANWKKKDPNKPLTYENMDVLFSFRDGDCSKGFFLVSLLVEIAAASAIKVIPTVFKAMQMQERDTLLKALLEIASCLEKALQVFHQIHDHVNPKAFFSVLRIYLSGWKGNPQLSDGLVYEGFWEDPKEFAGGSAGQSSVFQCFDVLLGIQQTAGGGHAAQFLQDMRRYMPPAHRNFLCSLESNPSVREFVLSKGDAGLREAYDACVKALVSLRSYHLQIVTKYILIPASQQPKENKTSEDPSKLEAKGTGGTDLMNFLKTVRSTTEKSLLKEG
# experiment.description: IDO1 Enzyme Assay
# condition.parameters: recombinant IDO1 40 nM, tryptophan substrate, fluorescence readout
IC50: recorded values
measured.endpoint: IC50 (nM)

INSERT INTO results (compound, measured_endpoint, recorded_number) VALUES
  ('O=C(CO)N1CCC(Oc2nonc2/C(=N/O)N[C@H]2Cc3ccc(F)cc32)CC1', 'IC50', 516),
  ('NS(=O)(=O)CCOc1nonc1/C(=N/O)N[C@H]1Cc2ccc(F)cc21', 'IC50', 289),
  ('O=C(N1CC(Oc2nonc2/C(=N/O)N[C@H]2Cc3ccc(F)cc32)C1)C1(O)CC1', 'IC50', 56.6),
  ('C[C@@H](CNC(=O)CO)Oc1nonc1/C(=N/O)N[C@H]1Cc2ccc(F)cc21', 'IC50', 2450),
  ('CC(=O)NC(CO)COc1nonc1/C(=N/O)N[C@H]1Cc2ccc(F)cc21 (some centres unmarked)', 'IC50', 334),
  ('O=C(NCCOc1nonc1/C(=N/O)N[C@H]1Cc2ccc(F)cc21)c1nc[nH]n1', 'IC50', 264),
  ('O=C(CO)N1CC[C@@H](Oc2nonc2/C(=N/O)N[C@H]2Cc3ccc(F)cc32)C1', 'IC50', 1390),
  ('O=C(CO)NCCOc1nonc1/C(=N/O)N[C@H]1Cc2ccc(F)cc21', 'IC50', 114),
  ('NC(=O)COc1nonc1/C(=N/O)N[C@H]1Cc2ccc(F)cc21', 'IC50', 186),
  ('CC(C)(COc1nonc1/C(=N/O)N[C@H]1Cc2ccc(F)cc21)NC(=O)CO', 'IC50', 2150),
  ('CCC(=O)NCCOc1nonc1/C(=N/O)N[C@H]1Cc2ccc(F)cc21', 'IC50', 39.8),
  ('NC(=O)N[C@H]1C[C@@H](Oc2nonc2/C(=N/O)N[C@H]2Cc3ccc(F)cc32)C1', 'IC50', 49),
  ('O=C(COc1nonc1/C(=N/O)N[C@H]1Cc2ccc(F)cc21)NC[C@@H](O)CO', 'IC50', 447),
  ('O=C(COc1nonc1/C(=N/O)N[C@H]1Cc2ccc(F)cc21)NCCO', 'IC50', 139),
  ('NS(=O)(=O)N[C@H]1C[C@@H](Oc2nonc2/C(=N/O)N[C@H]2Cc3ccc(F)cc32)C1', 'IC50', 36.6),
  ('CC(=O)NC[C@H](O)COc1nonc1/C(=N/O)N[C@H]1Cc2ccc(F)cc21', 'IC50', 216),
  ('O=C(N[C@H]1C[C@@H](Oc2nonc2/C(=N/O)N[C@H]2Cc3ccc(F)cc32)C1)C1(O)CC1', 'IC50', 167);
